- Test system: medullary thyroid carcinoma primary cultures
- measurement_description: Calcitonin secretion by MTC primary cultures (IRMA)
- Assay type: cell-based, human
- measurement_parameters: MTC primary culture #1 (non responder), 10^−8 M, six hours
% CT secretion inhibition vs. control overview
Number only, in %; omit the unit.

Problem: Write down the reported % CT secretion inhibition vs. control of C[C@@H](O)[C@H](NC(=O)[C@H](Cc1ccccc1)NC(=O)[C@@H](NC(=O)[C@H](CCCCN)NC(=O)[C@@H](Cc1c[nH]c2ccccc12)NC(=O)[C@H](Cc1c[nH]c2ccccc12)NC(=O)[C@H](Cc1ccccc1)NC(=O)[C@H](N)Cc1ccccc1)[C@@H](C)O)C(N)=O [Cmpd #3, D-Phe-Phe-Trp-D-Trp-Lys-Thr-Phe-Thr-NH2] , test system: medullary thyroid carcinoma primary cultures.
Result: −16.6

----------
% cell viability reduction vs. control overview
- Test system: medullary thyroid carcinoma primary cultures
- measurement_description: Cell viability of MTC primary cultures (MTT)
- Format: cell-based, human
- measurement_parameters: MTC primary culture #17 (non responder), 10^−8 M, forty-eight hours
Square brackets hold non-standard residues; d marks the D form. Peptide text beside a SMILES is read from it. Tic = O=C(O)[C@@H]1Cc2ccccc2CN1; Abu = CC[C@H](N)C(=O)O
Number only, in %; omit the unit.

// known answers, use as guide
# compound, u, measurement
data = [
    ("C[C@@H](O)[C@H](NC(=O)[C@H](Cc1ccccc1)NC(=O)[C@@H](NC(=O)[C@H](CCCCN)NC(=O)[C@@H](Cc1c[nH]c2ccccc12)NC(=O)[C@H](Cc1c[nH]c2ccccc12)NC(=O)[C@H](Cc1ccccc1)NC(=O)[C@H](N)Cc1ccccc1)[C@@H](C)O)C(N)=O", "%", "−8.7"),
    ("CC[C@@H]1NC(=O)[C@H](CCCCN)NC(=O)[C@@H](Cc2c[nH]c3ccccc23)NC(=O)[C@H](Cc2ccc(O)cc2)NC(=O)[C@@H]2Cc3ccccc3CN2C(=O)[C@H](Cc2ccccc2)NC1=O [Cmpd #2, c[Tic-Tyr-D-Trp-Lys-Abu-Phe]] (cyclo([Tic]Y[dW]K[Abu]F))", "%", "−10.3"),
    ("CC(C)[C@@H]1NC(=O)[C@H](CCCCN)NC(=O)[C@@H](Cc2c[nH]c3ccccc23)NC(=O)[C@H](Cc2ccc(O)c(I)c2)NC(=O)[C@@H](NC(=O)[C@H](N)Cc2ccccc2)CSSC[C@@H](C(=O)N[C@H](C(N)=O)[C@@H](C)O)NC1=O", "%", "−2.6"),
]

Continue with the next compound.
Problem: Given the entry CC(C)[C@@H]1NC(=O)[C@H](CCCCN)NC(=O)[C@@H](Cc2c[nH]c3ccccc23)NC(=O)[C@H](Cc2ccc(O)cc2)NC(=O)[C@@H](NC(=O)[C@H](N)Cc2ccc3ccccc3c2)CSSC[C@@H](C(=O)N[C@H](C(N)=O)[C@@H](C)O)NC1=O [lanreotide, reference compound] , report its measured % cell viability reduction vs. control.
Result: −9.7

----------
% CT secretion inhibition vs. control overview
- Tested on: medullary thyroid carcinoma primary cultures
- measurement_description: Calcitonin secretion by MTC primary cultures (IRMA)
- Assay type: cell-based, human
- measurement_parameters: MTC primary culture #8 (non responder), 10^−8 M, six hours
Square brackets hold non-standard residues; d marks the D form. Peptide text beside a SMILES is read from it. Tic = O=C(O)[C@@H]1Cc2ccccc2CN1; Abu = CC[C@H](N)C(=O)O

# molecule, assayed_target, % CT secretion inhibition vs. control
data = [
    ("C[C@@H](O)[C@H](NC(=O)[C@H](Cc1ccccc1)NC(=O)[C@@H](NC(=O)[C@H](CCCCN)NC(=O)[C@@H](Cc1c[nH]c2ccccc12)NC(=O)[C@H](Cc1c[nH]c2ccccc12)NC(=O)[C@H](Cc1ccccc1)NC(=O)[C@H](N)Cc1ccccc1)[C@@H](C)O)C(N)=O [Cmpd #3, D-Phe-Phe-Trp-D-Trp-Lys-Thr-Phe-Thr-NH2]", "medullary thyroid carcinoma primary cultures", "−7.5%"),
    ("CC(C)[C@@H]1NC(=O)[C@H](CCCCN)NC(=O)[C@@H](Cc2c[nH]c3ccccc23)NC(=O)[C@H](Cc2ccc(O)cc2)NC(=O)[C@@H](NC(=O)[C@H](N)Cc2ccc3ccccc3c2)CSSC[C@@H](C(=O)N[C@H](C(N)=O)[C@@H](C)O)NC1=O [lanreotide, reference compound]", "medullary thyroid carcinoma primary cultures", "14.7%"),
    ("CC(C)[C@@H]1NC(=O)[C@H](CCCCN)NC(=O)[C@@H](Cc2c[nH]c3ccccc23)NC(=O)[C@H](Cc2ccc(O)c(I)c2)NC(=O)[C@@H](NC(=O)[C@H](N)Cc2ccccc2)CSSC[C@@H](C(=O)N[C@H](C(N)=O)[C@@H](C)O)NC1=O [Cmpd #4]", "medullary thyroid carcinoma primary cultures", "3.6%"),
]

Continue with the next molecule.
Problem: Given the entry CC[C@@H]1NC(=O)[C@H](CCCCN)NC(=O)[C@@H](Cc2c[nH]c3ccccc23)NC(=O)[C@H](Cc2ccc(O)cc2)NC(=O)[C@@H]2Cc3ccccc3CN2C(=O)[C@H](Cc2ccccc2)NC1=O [Cmpd #2, c[Tic-Tyr-D-Trp-Lys-Abu-Phe]] (cyclo([Tic]Y[dW]K[Abu]F)) , report its measured % CT secretion inhibition vs. control.
Result: −2.6%

----------
- System: medullary thyroid carcinoma primary cultures
- measurement_description: Cell viability of MTC primary cultures (MTT)
- Assay type: cell-based, human
- measurement_parameters: MTC primary culture #2 (non responder), 10^−8 M, forty-eight hours
Square brackets hold non-standard residues; d marks the D form. Peptide text beside a SMILES is read from it. Tic = O=C(O)[C@@H]1Cc2ccccc2CN1; Abu = CC[C@H](N)C(=O)O
% cell viability reduction vs. control overview
Number only, in %; omit the unit.

// known answers, use as guide
# compound, % cell viability reduction vs. control (%)
records = [
    ("CC(C)[C@@H]1NC(=O)[C@H](CCCCN)NC(=O)[C@@H](Cc2c[nH]c3ccccc23)NC(=O)[C@H](Cc2ccc(O)cc2)NC(=O)[C@@H](NC(=O)[C@H](N)Cc2ccc3ccccc3c2)CSSC[C@@H](C(=O)N[C@H](C(N)=O)[C@@H](C)O)NC1=O [lanreotide, reference compound]", "−57.0"),
    ("CC(C)[C@@H]1NC(=O)[C@H](CCCCN)NC(=O)[C@@H](Cc2c[nH]c3ccccc23)NC(=O)[C@H](Cc2ccc(O)c(I)c2)NC(=O)[C@@H](NC(=O)[C@H](N)Cc2ccccc2)CSSC[C@@H](C(=O)N[C@H](C(N)=O)[C@@H](C)O)NC1=O", "−38.3"),
    ("CC[C@@H]1NC(=O)[C@H](CCCCN)NC(=O)[C@@H](Cc2c[nH]c3ccccc23)NC(=O)[C@H](Cc2ccc(O)cc2)NC(=O)[C@@H]2Cc3ccccc3CN2C(=O)[C@H](Cc2ccccc2)NC1=O [Cmpd #2, c[Tic-Tyr-D-Trp-Lys-Abu-Phe]] (cyclo([Tic]Y[dW]K[Abu]F))", "−56.4"),
]

Problem: Given the entry C[C@@H](O)[C@H](NC(=O)[C@H](Cc1ccccc1)NC(=O)[C@@H](NC(=O)[C@H](CCCCN)NC(=O)[C@@H](Cc1c[nH]c2ccccc12)NC(=O)[C@H](Cc1c[nH]c2ccccc12)NC(=O)[C@H](Cc1ccccc1)NC(=O)[C@H](N)Cc1ccccc1)[C@@H](C)O)C(N)=O , report its measured % cell viability reduction vs. control.
Result: −72.5

----------
% cell viability reduction vs. control overview
- Tested on: medullary thyroid carcinoma primary cultures
- measurement_description: Cell viability of MTC primary cultures (MTT)
- Assay type: cell-based, human
- measurement_parameters: MTC primary culture #18 (non responder), 10^−8 M, forty-eight hours
Square brackets hold non-standard residues; d marks the D form. Peptide text beside a SMILES is read from it. Tic = O=C(O)[C@@H]1Cc2ccccc2CN1; Abu = CC[C@H](N)C(=O)O
Number only, in %; omit the unit.

# molecule, assayed_target, u, measurement
data = [
    ("CC(C)[C@@H]1NC(=O)[C@H](CCCCN)NC(=O)[C@@H](Cc2c[nH]c3ccccc23)NC(=O)[C@H](Cc2ccc(O)c(I)c2)NC(=O)[C@@H](NC(=O)[C@H](N)Cc2ccccc2)CSSC[C@@H](C(=O)N[C@H](C(N)=O)[C@@H](C)O)NC1=O [Cmpd #4]", "medullary thyroid carcinoma primary cultures", "%", "−7.7"),
    ("CC(C)[C@@H]1NC(=O)[C@H](CCCCN)NC(=O)[C@@H](Cc2c[nH]c3ccccc23)NC(=O)[C@H](Cc2ccc(O)cc2)NC(=O)[C@@H](NC(=O)[C@H](N)Cc2ccc3ccccc3c2)CSSC[C@@H](C(=O)N[C@H](C(N)=O)[C@@H](C)O)NC1=O [lanreotide, reference compound]", "medullary thyroid carcinoma primary cultures", "%", "−15.8"),
    ("C[C@@H](O)[C@H](NC(=O)[C@H](Cc1ccccc1)NC(=O)[C@@H](NC(=O)[C@H](CCCCN)NC(=O)[C@@H](Cc1c[nH]c2ccccc12)NC(=O)[C@H](Cc1c[nH]c2ccccc12)NC(=O)[C@H](Cc1ccccc1)NC(=O)[C@H](N)Cc1ccccc1)[C@@H](C)O)C(N)=O [Cmpd #3, D-Phe-Phe-Trp-D-Trp-Lys-Thr-Phe-Thr-NH2]", "medullary thyroid carcinoma primary cultures", "%", "−3.8"),
]

Continue with the next molecule.
Problem: Given the entry CC[C@@H]1NC(=O)[C@H](CCCCN)NC(=O)[C@@H](Cc2c[nH]c3ccccc23)NC(=O)[C@H](Cc2ccc(O)cc2)NC(=O)[C@@H]2Cc3ccccc3CN2C(=O)[C@H](Cc2ccccc2)NC1=O [Cmpd #2, c[Tic-Tyr-D-Trp-Lys-Abu-Phe]] (cyclo([Tic]Y[dW]K[Abu]F)) , report its measured % cell viability reduction vs. control.
Result: −20.6
